Assay: physchem
Assay type: physicochemical
Endpoint: solubility

solubility for `Cc1c(F)cc(C(=O)NC2CC2)cc1-c1ccc(C(=O)NCC(C)(C)C)cn1` is ~5 µg/mL
